This collection of values is drawn from ChEMBL document CHEMBL1201862.

- System: M14
- Protocol Summary: NCI tumour cell line growth inhibition, 48 h
The source made the active and inactive calls. Cut-off read from the data, not from the text of the source: active = GI50 up to about 1.1 µM and inactive = higher.
Experimental Readout: GI50

Some molecules with recorded GI50:
Molecule	Experimental System	Result Value
O=c1c2cc(I)ccc2nc(SCc2n[nH]c(=S)o2)n1Cc1ccccc1	M14	20.5 µM (inactive)
COC(C/C(=C/CO[Si](C(C)C)(C(C)C)C(C)C)C(=O)N(C(=O)OC(C)(C)C)c1ccccc1I)OC	M14	47.2 µM (inactive)
C#CC1(OC(C)=O)CCC2C3CC=C4C=C(OC(C)=O)CCC4(C)C3CCC21C (stereo not drawn)	M14	26.7 µM (inactive)

The record that follows has no GI50 shown yet.
Which GI50 is listed for O=C(NCCCCCCNC(=O)n1cc(F)c(=O)[nH]c1=O)NCCCOCCOCCOCCOCCOCCOCCOCCOCCOCCOCCOCCOCCOCCOCCOCCOCCOCCOCCOCCOCCOCCCNC(=O)C(O)C(O)C(OC1OC(CO)C(O)C(O)C1O)C(O)CO (stereo not drawn) ?
67.5 µM (inactive)
